As an illustration, consider measured Ki for compounds on UniProt P27958.
Sequence (P27958 1027-1208): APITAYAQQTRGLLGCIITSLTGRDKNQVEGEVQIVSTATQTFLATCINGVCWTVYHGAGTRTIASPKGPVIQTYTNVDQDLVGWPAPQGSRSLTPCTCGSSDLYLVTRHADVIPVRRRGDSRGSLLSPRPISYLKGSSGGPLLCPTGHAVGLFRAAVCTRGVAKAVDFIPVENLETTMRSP

Some solved entries appear below for comparison.
{"columns": ["COMPOUND", "Ki"],
 "data": [
  ["CCC(C=O)NC(=O)c1cc(OCc2ccccc2)ccc1N(C)C(=O)C(NC(=O)C(NC(=O)c1cnccn1)C(C)C)C(C)C (stereo not shown)", "1 to 100 µM"],
  ["CCC(C=O)NC(=O)c1cc(OCc2ccccc2)ccc1NC(=O)C(NC(=O)C(NC(=O)c1cnccn1)C(C)C)C(C)C (stereo not shown)", "1 to 100 µM"],
  ["CCC(C=O)NC(=O)c1cc(OCc2ccc(Cl)c(Cl)c2)ccc1NC(=O)C(NC(=O)C(NC(=O)c1cnccn1)C(C)C)C(C)C (stereo not shown)", "1 to 100 µM"]
]}

Now consider the entry below.
# CCC(C=O)NC(=O)c1cc(OCc2ccccc2)ccc1NC(=O)C(NC(=O)c1c(O)ccc2ccccc12)C(C)C (stereo not shown) with UniProt P27958: Ki is 1 to 100 µM
